Cited source: PubChem BioAssay

System: Aerobactin synthetase IucA (Klebsiella pneumoniae hvKP1)
Test: Biochemical IucA enzyme inhibition primary screen of the Spectrum library (AID 1346200);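 note: 100% = wells without compound and 0% = wells lacking enzyme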
Conditions: malachite green pyrophosphate, A620, at 8 µM, hits give low values
observationType: activity remaining (%)
Express the result in % but write the number alone.

Task item: Please tell me: activity remaining of "NS(=O)(=O)c1cc2c(cc1C(F)(F)F)NCNS2(=O)=O" , system Aerobactin synthetase IucA (Klebsiella pneumoniae hvKP1)?
Reply: 107

Task item: Please tell me: activity remaining of "Cc1cc(-c2ccccc2)nnc1NCCN1CCOCC1" , system Aerobactin synthetase IucA (Klebsiella pneumoniae hvKP1)?
Reply: 110

Task item: Please tell me: activity remaining of "CCCCCCNC(=O)n1cc(F)c(=O)[nH]c1=O" , system Aerobactin synthetase IucA (Klebsiella pneumoniae hvKP1)?
Reply: 112

Task item: Please tell me: activity remaining of "CC1=C2[C@@H](CC1)[C@@H](C)CC[C@@H]2/C=C(\C)C(=O)O" , system Aerobactin synthetase IucA (Klebsiella pneumoniae hvKP1)?
Reply: 113

Task item: Please tell me: activity remaining of O=c1c2cc(O)c(O)cc2oc2cc(O)c(C3O[C@H](CO)[C@H](O)[C@@H](O)[C@H]3O)c(O)c12 (stereo partly specified) , system Aerobactin synthetase IucA (Klebsiella pneumoniae hvKP1)?
Reply: 93.6

Task item: Please tell me: activity remaining of CC(=O)OCC(=O)[C@@]1(O)CCC2C3CCC4=CC(=O)CC[C@]4(C)C3C(=O)C[C@@]21C (stereo partly specified) , system Aerobactin synthetase IucA (Klebsiella pneumoniae hvKP1)?
Reply: 120

Task item: Please tell me: activity remaining of "Clc1ccccc1CN1CCc2sccc2C1" , system Aerobactin synthetase IucA (Klebsiella pneumoniae hvKP1)?
Reply: 109

Task item: Please tell me: activity remaining of "COc1cc(OC)c2c(=O)c(-c3ccccc3)coc2c1" , system Aerobactin synthetase IucA (Klebsiella pneumoniae hvKP1)?
Reply: 110

Task item: Please tell me: activity remaining of NC(=O)c1ncn(C2O[C@H](CO)[C@@H](O)[C@H]2O)c1N (stereo partly specified) , system Aerobactin synthetase IucA (Klebsiella pneumoniae hvKP1)?
Reply: 99.1

Task item: Please tell me: activity remaining of C[C@@H]1CC(Cl)CC[C@H]1C(=O)OC(C)(C)C (stereo partly specified) , system Aerobactin synthetase IucA (Klebsiella pneumoniae hvKP1)?
Reply: 119

Task item: Please tell me: activity remaining of C=C1CC[C@H](O)C/C1=C/C=C1\CCCC2(C)C1CCC2C(C)CCCC(C)C (stereo partly specified) , system Aerobactin synthetase IucA (Klebsiella pneumoniae hvKP1)?
Reply: 113

====

What activity remaining was measured for each of the following?
System: Aerobactin synthetase IucA (Klebsiella pneumoniae hvKP1)
Test: Biochemical IucA enzyme inhibition primary screen of the Spectrum library (AID 1346200);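 note: 100% = wells without compound and 0% = wells lacking enzyme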
Settings: malachite green pyrophosphate, A620, at 8 µM, hits give low values
Express the result in % but write the number alone.

Task item: What value of activity remaining has been reported for the following compound? "O=c1c(O)c(-c2ccc(O)c(O)c2)oc2c(O[C@@H]3O[C@H](CO)[C@H](O)[C@@H](O)[C@H]3O)c(O)cc(O)c12"
Reply: 96.1

Task item: What value of activity remaining has been reported for the following compound? "CC(=O)NCCCCCC(=O)O"
Reply: 124

Task item: What value of activity remaining has been reported for the following compound? CC(C)=CC1C(CO)C1(C)C (centres undefined)
Reply: 86.3

Task item: What value of activity remaining has been reported for the following compound? CC(C)NCC(O)c1cc(O)cc(O)c1 (centres undefined)
Reply: 126

Task item: What value of activity remaining has been reported for the following compound? CN(CCC(N)CC(=O)N[C@H]1C=CC(n2ccc(N)nc2=O)O[C@@H]1C(=O)O)C(=N)N (some centres undefined)
Reply: 109

Task item: What value of activity remaining has been reported for the following compound? CC(=O)OCC1=C(C(=O)O)N2C(=O)[C@@H](NC(=O)CCCC(N)C(=O)O)C2SC1 (some centres undefined)
Reply: 111

Task item: What value of activity remaining has been reported for the following compound? "COc1cc(O)ccc1C(C)=O"
Reply: 124

Task item: What value of activity remaining has been reported for the following compound? "CN(C)c1nc(N(C)C)nc(N(C)C)n1"
Reply: 118

Task item: What value of activity remaining has been reported for the following compound? "Cc1c(NC(C)C)c(=O)n(-c2ccccc2)n1C"
Reply: 105

Task item: What value of activity remaining has been reported for the following compound? CC(C1OC(C)(C)C(O)C1O)[C@@H]1CC[C@]2(C)C3=CCC4C(C)(C)C(=O)CC[C@]4(C)C3CC[C@@]12C (some centres undefined)
Reply: 111

Task item: What value of activity remaining has been reported for the following compound? "COc1cc(C(=O)NCCCCCC(=O)O)cc(OC)c1OC"
Reply: 120

Task item: What value of activity remaining has been reported for the following compound? "Cc1cc(O)cc(C)c1Cl"
Reply: 94.5

Task item: What value of activity remaining has been reported for the following compound? CC(C)C1=CC2=CCC3[C@](C)(CCC[C@]3(C)C(=O)O)C2CC1 (some centres undefined)
Reply: 94.8

Task item: What value of activity remaining has been reported for the following compound? "NC(=NCCC[C@H](N)C(=O)O)N[N+](=O)[O-]"
Reply: 121

Task item: What value of activity remaining has been reported for the following compound? Cc1ncc([N+](=O)[O-])n1CC(C)O (centres undefined)
Reply: 112

Task item: What value of activity remaining has been reported for the following compound? Cn1nnnc1SCC1=C(C(=O)O)N2C(=O)C(NC(=O)C(O)c3ccccc3)C2SC1 (centres undefined)
Reply: 121

Task item: What value of activity remaining has been reported for the following compound? CCCCN1CCCCC1C(=O)Nc1c(C)cccc1C (centres undefined)
Reply: 103

Task item: What value of activity remaining has been reported for the following compound? CC(C(=O)O)c1ccc2c(c1)[nH]c1ccc(Cl)cc12 (centres undefined)
Reply: 109

Task item: What value of activity remaining has been reported for the following compound? C=C1C(=O)O[C@@H]2C3OC3(C)CC/C=C(\C)CC[C@@H]12 (some centres undefined)
Reply: 105

Task item: What value of activity remaining has been reported for the following compound? "COC(=O)c1c(C)cc(OC)cc1O"
Reply: 98.9

Task item: What value of activity remaining has been reported for the following compound? "CN1CCN(CCC=C2c3ccccc3Sc3ccc(S(=O)(=O)N(C)C)cc32)CC1"
Reply: 116

Task item: What value of activity remaining has been reported for the following compound? Cc1c(OCC(F)(F)F)ccnc1CS(=O)c1nc2ccccc2[nH]1 (centres undefined)
Reply: 121

Task item: What value of activity remaining has been reported for the following compound? "Cc1cccc(N(C)C(=S)Oc2ccc3ccccc3c2)c1"
Reply: 116

Task item: What value of activity remaining has been reported for the following compound? "O=C(CC(=O)c1ccccc1)c1ccccc1"
Reply: 101

====

Assay: SU-DIPG-VI glioma cell viability, MIPE4.0 library, CellTiter-Glo luminescence, qHTS (AID 1347066);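 note: cells exposed to compound for 48 hours before readout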
Conditions: CellTiter-Glo ATP luminescence
Results filed as inconclusive are left out. Calls of active or inactive are those of the source. The limit is not given here; nearly all actives have AC50 up to about 30 µM.
observationType: AC50

Some entries whose results are on file:
Task item: What value of AC50 has been reported for the following compound? "Cc1cc(SCc2sc(-c3ccc(C(F)(F)F)c(F)c3)nc2C)ccc1OCC(=O)O"
Reply: inactive

Task item: What value of AC50 has been reported for the following compound? CC(C)CC(N(C)C)C1(c2ccc(Cl)cc2)CCC1 (stereo not given)
Reply: inactive

Task item: What value of AC50 has been reported for the following compound? "O=C(Oc1ccc([N+](=O)[O-])cc1)N1CCN(Cc2cccc(Oc3ccccc3)c2)CC1"
Reply: inactive

Task item: What value of AC50 has been reported for the following compound? "C[C@@H]1CC[C@H]2[C@@H](C)C(=O)O[C@@H]3O[C@@]4(C)CC[C@@H]1[C@]32OO4"
Reply: inactive

Task item: What value of AC50 has been reported for the following compound? "CC(=O)OCC1=C(C(=O)O)N2C(=O)[C@@H](N)[C@@H]2SC1"
Reply: inactive

Task item: What value of AC50 has been reported for the following compound? "C1=C2CCCN[C@H]2[C@@H]2C[C@H]1[C@H]1CCCCN1C2"
Reply: inactive

Task item: What value of AC50 has been reported for the following compound? "CN1CCN(C(=O)O[C@H]2c3nccnc3C(=O)N2c2ccc(Cl)cn2)CC1"
Reply: inactive

Task item: What value of AC50 has been reported for the following compound? "CCc1c(C(=O)C(N)=O)c2c(OCC(=O)O)cccc2n1Cc1ccccc1"
Reply: inactive

Task item: What value of AC50 has been reported for the following compound? "CC1=C(O)C(=O)C=C2C1=CC=C1[C@@]2(C)CC[C@@]2(C)[C@@H]3C[C@](C)(C(=O)O)CC[C@]3(C)CC[C@]12C"
Reply: 1.18 µM (active)

Task item: What value of AC50 has been reported for the following compound? "CN[C@@H]1Cc2cccc3[nH]c(=O)n(c23)C1"
Reply: inactive

---
Task item: What value of AC50 has been reported for the following compound? "CC[C@H]1/C=C\C=C/C[C@@H](C)[C@H](O)[C@@](C)(O)C(=O)[C@@H](C)[C@H](O)[C@@H](C)C(=O)[C@@H](C)[C@H](O)[C@@H](C)/C=C/C(=O)O[C@@H]2[C@H](C)[C@H](CC1)O[C@]1(CC[C@H](C)[C@H](C[C@@H](C)O)O1)[C@H]2C"
Reply: 6.62 µM (active)

Task item: What value of AC50 has been reported for the following compound? "CC(=O)O[C@@]12CO[C@@H]1C[C@H](O)[C@@]1(C)C(=O)[C@H](O)C3=C(C)[C@@H](O)C[C@@](O)([C@@H](OC(=O)c4ccccc4)[C@H]21)C3(C)C"
Reply: inactive
